Where these numbers come from: patent US10800784B2

targetEntity: human PDHK1 (hPDHK1) (Homo sapiens (Human))
Sequence (Q15118 29-436): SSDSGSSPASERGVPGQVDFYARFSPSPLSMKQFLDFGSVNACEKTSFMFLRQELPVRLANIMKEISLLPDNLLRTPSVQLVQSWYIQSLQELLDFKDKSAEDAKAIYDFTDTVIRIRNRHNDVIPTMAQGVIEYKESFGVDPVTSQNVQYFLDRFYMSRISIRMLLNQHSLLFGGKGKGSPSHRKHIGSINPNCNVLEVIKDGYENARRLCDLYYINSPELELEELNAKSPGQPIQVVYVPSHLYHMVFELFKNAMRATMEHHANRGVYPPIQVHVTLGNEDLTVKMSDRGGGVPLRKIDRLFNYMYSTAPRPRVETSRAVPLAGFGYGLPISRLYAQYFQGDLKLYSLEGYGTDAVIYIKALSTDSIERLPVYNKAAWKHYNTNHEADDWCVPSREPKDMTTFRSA
assayMethodText: Inhibitory action of PDHK1 activity in vitro (residual PDH activity after PDHK reaction)
testConditions: PDH/hPDHK1 complex solution, PDHK reaction at room temperature for 45 min, NADH absorbance at 340 nm; read-out: hPDK1 IC50
# IC50 annotations

# testSmiles, measurementQualifier, IC50 / nM
records = [
    ("C[C@H]1CN(C(=O)c2cc(-c3ccc(F)cc3)on2)Cc2cnc([C@@](C)(O)C(F)(F)F)n21", "=", 9),
    ("C[C@H]1CN(C(=O)c2cc(-c3ccc(C#N)cc3)n(C3CC3)n2)Cc2cnc([C@@](C)(O)C(F)(F)F)n21", "=", 4),
    ("C[C@H]1CN(C(=O)c2ccc(F)c(-c3ccnn3C)c2)Cc2cnc([C@@](C)(O)C(F)(F)F)n21", "=", 5),
    ("C[C@H]1CN(C(=O)c2ccc(C3(O)CCC3)cc2)Cc2cnc([C@@](C)(O)C(F)(F)F)n21", "=", 4),
    ("C[C@H]1CN(C(=O)c2cc(-c3ccccc3)nn2C)Cc2nnc([C@@](C)(O)C(F)(F)F)n21", "=", 5),
    ("C[C@H]1CN(C(=O)c2cc(-c3ccc(Cl)cn3)nn2C)Cc2cnc([C@@](C)(O)C(F)(F)F)n21", "=", 4),
    ("C[C@H]1CN(C(=O)c2ccnc(-c3ccc(C#N)cc3)c2)Cc2cnc([C@@](C)(O)C(F)(F)F)n21", "=", 5),
    ("C[C@H]1CN(C(=O)c2ccc(N3CCN(C)CC3)cc2)Cc2cnc([C@@](C)(O)C(F)(F)F)n21", "=", 8),
    ("C[C@H]1CN(C(=O)c2cc(C#N)nn2C2CC2)Cc2onc([C@@](C)(O)C(F)(F)F)c21", "=", 5),
    ("C[C@H]1CN(C(=O)c2ccc(-c3ccc(F)cc3)cn2)Cc2cnc([C@@](C)(O)C(F)(F)F)n21", "=", 4),
    ("C[C@H]1CN(C(=O)c2ccnn2C2CC2)Cc2onc([C@@](C)(O)C(F)(F)F)c21", "<", 3),
    ("C[C@H]1CN(C(=O)c2cc(-c3ccccc3)nn2C)Cc2cnc([C@@](C)(O)C(F)(F)F)n21", "=", 3),
    ("C[C@H]1CN(C(=O)c2ccnc(-c3ccc(F)cc3C#N)c2)Cc2cnc([C@@](C)(O)C(F)(F)F)n21", "<", 3),
    ("C[C@H]1CN(C(=O)c2cc(-c3ccc(C#N)cc3)nn2C2CC2)Cc2cnc([C@@](C)(O)C(F)(F)F)n21", "=", 3),
    ("C[C@H]1CN(C(=O)c2ccnc(N3CCC(F)(F)CC3)c2)Cc2cnc([C@@](C)(O)C(F)(F)F)n21", "=", 6),
]
